assay_explanation: Solubility in culture medium in presence of 5% fetal calf serum
Assay type: physicochemical
condition: culture medium with 5% fetal calf serum
Below, each entry is listed with its recorded solubility.
Response body: numeric value in mM, unit text excluded.

Here is how some compounds turned out for solubility.
COc1ccc2c(c1)[n+]([O-])c(NCCN(C)C)n[n+]2[O-]
46
COc1ccc2c(c1)[n+]([O-])c(NCCCN1CCC(C#N)C1)n[n+]2[O-] (centres undefined)
47
CC(C)c1ccc2c(c1)[n+]([O-])c(NCCN1CCCCC1)n[n+]2[O-]
18

Attention now turns to another entry.
[Q] So what does the record say about solubility for COc1ccc2c(c1)[n+]([O-])c(NCCN1C(C)CCCC1C)n[n+]2[O-] (centres undefined) ?
[A] 29

----------
Measured log10 of Activity accompanies every entry in the list below.
Tested on: HT-29
assay_explanation: Effect on human HT29 cells under hypoxic conditions assessed as drug level causing 10% clonogenic survival
Type: functional
The base-10 logarithm of Activity, taken with Activity in µM·h, is what appears here.

Recorded results for 3 compounds are shown here.
CCCN(CCC)CCNc1n[n+]([O-])c2ccc(C)cc2[n+]1[O-]
1.59
COCCOc1ccc2c(c1)[n+]([O-])c(NCCN(C)C)n[n+]2[O-]
1.71
Nc1n[n+]([O-])c2ccccc2[n+]1[O-]
1.39

[Q] Suppose we examine the compound `COc1ccc2c(c1)[n+]([O-])c(NCCN1CCCCC1)n[n+]2[O-]` ; what log10 of Activity value has been reported?
[A] 1.59

[Q] I would be grateful if you could share the reported log10 of Activity for `CN(C)CCNc1n[n+]([O-])c2ccc(C(C)(C)C)cc2[n+]1[O-]` .
[A] 1.06

[Q] Looking for the measured log10 of Activity of `CC(C)Oc1ccc2c(c1)[n+]([O-])c(NCCN(C)C)n[n+]2[O-]` , can you help?
[A] 1.35

[Q] Recorded log10 of Activity of `[O-][n+]1nc(NCCN2CCOCC2)[n+]([O-])c2ccccc21` , please.
[A] 1.68

[Q] Reported log10 of Activity, compound `CCOc1ccc2c(c1)[n+]([O-])c(NCCN1CCCCC1)n[n+]2[O-]` : ____
[A] 1.56

[Q] Endpoint output: log10 of Activity of `CN(C)CCNc1n[n+]([O-])c2ccccc2[n+]1[O-]` . Value?
[A] 0.51

[Q] Name the reported log10 of Activity value associated with the compound `CCN(CC)CCNc1n[n+]([O-])c2ccc(C)cc2[n+]1[O-]`
[A] 0.92

----------
assay_explanation: Solubility in culture medium in presence of 5% fetal calf serum
Type: physicochemical
condition: culture medium with 5% fetal calf serum
experimental_readout: solubility

COc1ccc2c(c1)[n+]([O-])c(NCCCN1CCOCC1)n[n+]2[O-]
> 44 mM

[Q] Dear colleague, I am looking for the recorded solubility of the following molecule: `CCOc1ccc2c(c1)[n+]([O-])c(NCCCN1CCOCC1)n[n+]2[O-]`
[A] > 51 mM

[Q] What measured solubility goes with `Cc1ccc2c(c1)[n+]([O-])c(NCCN(C)C)n[n+]2[O-]` ?
[A] > 51 mM

[Q] Which value of solubility has been reported for `CC(C)Oc1ccc2c(c1)[n+]([O-])c(NCCN(C)C)n[n+]2[O-]` in the records?
[A] > 55 mM

[Q] Any idea what solubility was measured for `CCc1ccc2c(c1)[n+]([O-])c(NCCN(C)C)n[n+]2[O-]` ?
[A] > 49 mM

[Q] // query solubility value for entry `CCOc1ccc2c(c1)[n+]([O-])c(NCCN(C)C)n[n+]2[O-]`
[A] > 50 mM

[Q] Please report the recorded solubility for `CCN(CC)CCNc1n[n+]([O-])c2ccc(C)cc2[n+]1[O-]` .
[A] > 49 mM

[Q] Bench note: what solubility did `COCCOc1ccc2c(c1)[n+]([O-])c(NCCN(C)C)n[n+]2[O-]` show?
[A] > 51 mM

[Q] Find the recorded solubility belonging to `[O-][n+]1nc(NCCN2CCOCC2)[n+]([O-])c2ccccc21` and report it.
[A] > 49 mM

[Q] Report solubility for `[O-][n+]1nc(NCCN2CCCCC2)[n+]([O-])c2ccccc21` please.
[A] > 49 mM

----------
Tested on: HT-29
assay_explanation: Ratio of IC50 for HT29 cells under oxic conditions to hypoxic conditions after 4 hrs
Type: functional, Homo sapiens
One threshold, 50, splits the recorded Ratio IC50 values: lower ones are t, equal or higher ones are f.

Cc1ccc2c(c1)[n+]([O-])c(NCCN1CCOCC1)n[n+]2[O-]
f

[Q] Take the compound `CCc1ccc2c(c1)[n+]([O-])c(NCCN(C)C)n[n+]2[O-]` and say whether its Ratio IC50 is less than 50.
[A] f

[Q] Ratio IC50 strictly < 50 for this compound? `CN(C)CCNc1n[n+]([O-])c2ccc(C(C)(C)C)cc2[n+]1[O-]`
[A] f

[Q] # check: Ratio IC50 < 50 for `COCCOc1ccc2c(c1)[n+]([O-])c(NCCN(C)C)n[n+]2[O-]`
[A] f

[Q] Is Ratio IC50 of `Cc1ccc2c(c1)[n+]([O-])c(NCCN(C)C)n[n+]2[O-]` strictly below 50?
[A] f

[Q] Below 50 on Ratio IC50? Entry `CCCN(CCC)CCNc1n[n+]([O-])c2ccc(Cl)cc2[n+]1[O-]`
[A] t

[Q] Bench note: check whether `CCCN(CCC)CCNc1n[n+]([O-])c2ccc(C(C)C)cc2[n+]1[O-]` shows Ratio IC50 below 50
[A] t

[Q] Threshold test, Ratio IC50 < 50: `CC(C)c1ccc2c(c1)[n+]([O-])c(NCCN1CCCCC1)n[n+]2[O-]`
[A] t

[Q] Identify whether the compound `CN(C)CCNc1n[n+]([O-])c2ccc(OCC3CC3)cc2[n+]1[O-]` records Ratio IC50 below 50.
[A] t

[Q] Threshold test, Ratio IC50 < 50: `CCCN(CCC)CCNc1n[n+]([O-])c2ccc(C(C)(C)C)cc2[n+]1[O-]`
[A] t

[Q] For `CC(C)(C)c1ccc2c(c1)[n+]([O-])c(NCCN1CCCCC1)n[n+]2[O-]` , is the recorded Ratio IC50 below the cut-off of 50?
[A] t

----------
Tested on: HT-29
assay_explanation: Effect on human HT29 cells under hypoxic conditions assessed as drug level causing 10% clonogenic survival
Assay type: functional
experimental_readout: Activity
The number alone won't do; follow it with the unit.

[Q] Could you share what Activity was measured for `COc1ccc2c(c1)[n+]([O-])c(NCCN(C)C)n[n+]2[O-]` , tested on HT-29?
[A] 26.1 µM·h

----------
Overview of reported Ratio IC50 across a group of compounds:
Test system: HT-29
assay_explanation: Ratio of IC50 for HT29 cells under oxic conditions to hypoxic conditions after 4 hrs
Assay type: functional, Homo sapiens
No unit in the answer, only the number.

CCOc1ccc2c(c1)[n+]([O-])c(NCCCN1CCOCC1)n[n+]2[O-]
52
CN(C)CCNc1n[n+]([O-])c2ccccc2[n+]1[O-]
80

Proceed to the following item.
[Q] Item under review: `COc1ccc2c(c1)[n+]([O-])c(NCCN(C)C)n[n+]2[O-]` . Reported Ratio IC50?
[A] 89

----------
Tested on: HT-29
assay_explanation: Effect on human HT29 cells under hypoxic conditions assessed as drug level causing 10% clonogenic survival
Assay type: functional
Item-by-item account of Activity
All answers are understood in µM·h, so give the number only.

Completed entries (count: 2):
Cc1ccc2c(c1)[n+]([O-])c(NCCN1C(C)CCCC1C)n[n+]2[O-] (stereo not drawn)
15.4
CC(C)c1ccc2c(c1)[n+]([O-])c(NCCN1CCCCC1)n[n+]2[O-]
15.2

Attention now shifts to the item below.
[Q] Quick check: Activity of `COc1ccc2c(c1)[n+]([O-])c(NCCCN1CCOCC1)n[n+]2[O-]` ?
[A] 149.7
